FYI, the data here is from patent US20220177587A1.

ASSAYED TARGET: CD28 (Homo sapiens, UniProt P10747)
ASSAY NOTES: Jurkat/IL2 + CHO/OKT3 +/- PD-L1 reporter assay: PD-L1-dependent CD28 costimulation
Type: cell-based
Parameters: host or cells: Jurkat cells expressing an IL-2-luciferase reporter
ASSAY CONTEXT: Table E22; Jurkat/IL2 + CHO/OKT3/PD-L1; 5.0 nM
Each entry below carries its reported Fold Increase over WT CD80-IgV-Fe.
Enter your answer as a number in fold; do not include the unit.

H18Y/M47L/V68M/D90G (protein) VIHVTKEVKEVATLSCGYNVSVEELAQTRIYWQKEKKMVLTMMSGDLNIWPEYKNRTIFDITNNLSIMILALRPSDEGTYECVVLKYEKGAFKREHLAEVTLSVKAD; 2.14

Input A26E/E35D/V68M/D90G (protein) VIHVTKEVKEVATLSCGHNVSVEELEQTRIYWQKDKKMVLTMMSGDMNIWPEYKNRTIFDITNNLSIMILALRPSDEGTYECVVLKYEKGAFKREHLAEVTLSVKAD . Output Fold Increase over WT CD80-IgV-Fe: 2.23

Input H18Y/V68M/A71G/D90G (protein) VIHVTKEVKEVATLSCGYNVSVEELAQTRIYWQKEKKMVLTMMSGDMNIWPEYKNRTIFDITNNLSIMILGLRPSDEGTYECVVLKYEKGAFKREHLAEVTLSVKAD . Output Fold Increase over WT CD80-IgV-Fe: 2.04

Input E35D/M47L/V68M/D90G (protein) VIHVTKEVKEVATLSCGHNVSVEELAQTRIYWQKDKKMVLTMMSGDLNIWPEYKNRTIFDITNNLSIMILALRPSDEGTYECVVLKYEKGAFKREHLAEVTLSVKAD . Output Fold Increase over WT CD80-IgV-Fe: 1.82
